Experiment: Toxicity in Mus musculus ddY (mouse) assessed as mortality at 550 mg/kg, ip after 3 days
Format: organism-based
Set-up: dose 550 mg/kg, route intraperitoneal
Settings: in vivo
parameter.measured: mortality at 72 h (%)
One number for each entry, in %.

# mortality at 72 h of O=C(O)CN1C(=O)CSC1=S = 40

###

Experiment: Toxicity in Mus musculus ddY (mouse) assessed as mortality at 275 mg/kg, ip after 4 days
Type: organism-based
Set-up: dose 275 mg/kg, route intraperitoneal
Conditions: in vivo
For each record, write down the corresponding mortality at 96 h.
Numbers only, in %.

[
  {
    "mol": "CN1C(=O)CSC1=S",
    "reading.unit": "%",
    "recorded.result": 80
  }
]

Below: the item to evaluate.
# mortality at 96 h of O=C1CSC(=S)N1 = 0
